These measurements were taken from PubChem BioAssay (NCI).

- System: NCI-H226 lung
- Measurement Protocol: NCI-60 one-dose screen, 48 h (100 = growth as untreated, 0 = no growth, -100 = all killed)
- Study Conditions: 10 µM unless noted
The panel holds about 83,000 compounds, 20% with a hit somewhere; the sample as a whole holds those more often.
Readout Kind: growth (%)
Report only the number, with the unit % understood.

Here is how some compounds turned out for growth.
CCCCCc1ccc(S(=O)(=O)N(C(C)=O)c2cccc(-c3csc(N(CCN4CCN(C)CC4)C(C)=O)n3)c2)cc1
85.3
CCCCCCCCNC(=O)c1ccc(Cn2c(CCCC)nc3c(N)nc4ccccc4c32)cc1
87.7
NC(=O)C(=Cc1ccc(Cl)cc1)C(N)=O
65.3

Ask: What does the record list as growth for O=C(O)c1ccc(-n2cc(CNc3ccc(F)cc3)c(-c3ccc(C(F)(F)F)cc3)n2)cc1 ?
Result: 88.8

Ask: What does the record list as growth for O=C(CSc1nnc(-c2ccc(Cl)cc2)n1-c1ccccc1)Nc1ccc(F)cc1 ?
Result: 96.1

Ask: What does the record list as growth for C=CCn1c(SCC(=O)c2ccc(OC)cc2)nnc1-c1ccc(OC)cc1 ?
Result: 87.1
